TGT: DPP IV (Rattus norvegicus, UniProt P14740)
Construct: Add 25 uL of rat plasma or buffer to wells
Sequence (P14740 37-767 limits assumed): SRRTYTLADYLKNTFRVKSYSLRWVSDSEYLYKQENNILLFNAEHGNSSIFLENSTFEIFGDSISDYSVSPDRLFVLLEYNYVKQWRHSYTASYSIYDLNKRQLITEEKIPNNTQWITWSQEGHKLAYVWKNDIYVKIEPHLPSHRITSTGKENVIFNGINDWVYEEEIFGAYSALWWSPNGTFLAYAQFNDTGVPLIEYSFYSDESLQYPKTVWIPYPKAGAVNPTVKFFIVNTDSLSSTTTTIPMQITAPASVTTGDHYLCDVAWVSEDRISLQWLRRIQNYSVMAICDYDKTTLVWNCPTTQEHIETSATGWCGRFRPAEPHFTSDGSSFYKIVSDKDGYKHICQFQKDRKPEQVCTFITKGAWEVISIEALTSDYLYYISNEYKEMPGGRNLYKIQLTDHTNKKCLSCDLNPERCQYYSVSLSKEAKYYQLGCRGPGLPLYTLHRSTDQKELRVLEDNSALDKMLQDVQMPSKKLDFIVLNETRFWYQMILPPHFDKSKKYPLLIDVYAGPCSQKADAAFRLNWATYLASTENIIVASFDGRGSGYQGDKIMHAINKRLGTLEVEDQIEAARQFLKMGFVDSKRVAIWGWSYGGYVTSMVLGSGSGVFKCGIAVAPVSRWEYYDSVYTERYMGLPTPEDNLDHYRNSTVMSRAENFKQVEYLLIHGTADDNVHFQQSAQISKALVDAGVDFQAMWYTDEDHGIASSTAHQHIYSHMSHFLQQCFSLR
PROTOCOL NOTES: Measuring DPP IV inhibition (rat plasma, fluorogenic peptide substrate)
CONDITIONS: substrate H-Gly-Pro-alpha methyl coumarin, 30 min, room temp
Where a name gives a salt, the structure may show the parent alone.
PARAMETER MEASURED: log10 IC50 (log10 of the value in µM)

>>> measured_number("N#CC1CC(F)CN1C(=O)C1CC2CCCCC2N1 (stereo not drawn) [Example 3]")
-2.78
>>> measured_number("N[C@H](C(=O)N1CCCCC1)C1CCCCC1 [Example 8]")
1.35
>>> measured_number("N#CC1CCN1C(=O)C(N)C1CCCCC1 (stereo not drawn) [Example 16]")
0.08
>>> measured_number("N[C@H](C(=O)N1CC=CC1)C1CCCCC1 [Example 6]")
0.27
>>> measured_number("Cl.N#CC1CCCN1C(=O)C1CC2CCCCC2N1 (stereo not drawn) [Example 1, hydrochloride]")
-1.86
>>> measured_number("N#C[C@@H]1CCCN1C(=O)[C@H]1NCC2CCCCC21 (stereo partly drawn) [Example 4]")
-0.26
>>> measured_number("O=C(CNC12CC3CC(CC(C3)C1)C2)N1CCSC1 [Example 12]")
0.68
>>> measured_number("N#CC1CCCN1C(=O)C1NCC2CC21 (stereo not drawn) [Example 2, hydrochloride]")
-1.22
>>> measured_number("N#C[C@@H]1CC(F)CN1C(=O)C(N)C1CCCCC1 (stereo partly drawn) [Example 14]")
-2.19
>>> measured_number("N#CC1CCN1C(=O)C1CCCN1 (stereo not drawn) [Example 17]")
0.04
>>> measured_number("N#CC1CSCN1C(=O)C1CC2CCCCC2N1 (stereo not drawn) [Example 5, hydrochloride]")
-2.42
>>> measured_number("O=C(C1CC2CCCCC2N1)N1CCCC1 (stereo not drawn) [Example 10, hydrochloride]")
1.00
>>> measured_number("N#CC1CCN1C(=O)CNC12CC3CC(CC(C3)C1)C2 (stereo not drawn) [Example 18]")
-0.65
>>> measured_number("CCC(C)[C@H](N)C(=O)N1CC(F)C[C@H]1C#N (stereo partly drawn) [Example 13]")
-2.21
>>> measured_number("Cl.N#CC1CCN1C(=O)C1CC2CCCCC2N1 (stereo not drawn) [Example 20, hydrochloride]")
-0.75
